- Test Name: NCI Yeast Anticancer Drug Screen. Data for the wt1 strain (AID 149);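 further: 0% = growth of vehicle-treated wt1 cultures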
- Test Context: S. cerevisiae wt1 strain (SPY 50644) growth inhibition; at 1.2 µM; stronger effect = higher value
The panel holds about 79,000 compounds, 15% with a hit somewhere; the sample as a whole holds those more often. The source made the active and inactive calls. No stated cut-off is given here; in the data, active means growth inhibition above about 70%; inactive means the rest.
Metric Name: growth inhibition

Suppose we examine the compound Oc1ccc(NCn2c(=S)sc3ccccc32)cc1 ; what growth inhibition value has been reported?
-24% (inactive)

Suppose we examine the compound O=C(c1cc(Br)ccc1O)c1cc(Br)ccc1O ; what growth inhibition value has been reported?
9% (inactive)

Suppose we examine the compound Cc1ccc(NC(=O)/C(Cl)=C(\Cl)C(=O)O)cc1C ; what growth inhibition value has been reported?
-2% (inactive)

Suppose we examine the compound COc1ccccc1N=NC(C(=O)c1ccccc1)C(=O)c1ccccc1 ; what growth inhibition value has been reported?
6% (inactive)

Suppose we examine the compound N/C(=N\OC(=O)NC(Cl)=C(Cl)Cl)c1cc(C(F)(F)F)cc(C(F)(F)F)c1 ; what growth inhibition value has been reported?
16% (inactive)

Suppose we examine the compound O=[N+]([O-])C(=C(Sc1ccccc1)Sc1ccccc1)C(Cl)=C(Cl)Cl ; what growth inhibition value has been reported?
3% (inactive)

Suppose we examine the compound CC(C)NC(=O)OCc1c(COC(=O)NC(C)C)c(-c2ccc(Cl)c(Cl)c2)n2c1CCC2 ; what growth inhibition value has been reported?
-38% (inactive)

Suppose we examine the compound CC(=O)[O][Bi]([c]1ccccc1)[c]1ccccc1 ; what growth inhibition value has been reported?
2% (inactive)

Suppose we examine the compound S=C(Nc1ccc(Cl)c(Cl)c1)SCc1ccc2c(c1)OCO2 ; what growth inhibition value has been reported?
1% (inactive)

Suppose we examine the compound CC1(Cl)CC(O)C2(CC1Br)C1(C)OC1C1OC1(Br)C2(C)C (stereo unspecified) ; what growth inhibition value has been reported?
1% (inactive)

Suppose we examine the compound CCCCCCCCCCCC(=O)N(C)C ; what growth inhibition value has been reported?
-15% (inactive)

----------
- Test Name: NCI Yeast Anticancer Drug Screen. Data for the CLN2oe strain (AID 163);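 further: 0% = growth of vehicle-only control cultures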
- Test Context: S. cerevisiae CLN2oe strain, at 3.7 µM, stronger effect = higher value
Compounds without any hit were thinned out: in the full panel of roughly 79,000, 15% have a hit.
Metric Name: growth inhibition (%)
The figure you give is taken to be in %; do not add the unit.

Suppose we examine the molecule CCN(CC)CCN1C(=O)c2cccc3cc(OC)cc(c23)C1=O ; what growth inhibition value has been reported?
-4

Suppose we examine the molecule CCCCCCCC1(N=[N+]=[N-])C(=O)c2ccccc2N(C)C1=O (stereo unspecified) ; what growth inhibition value has been reported?
8

Suppose we examine the molecule C[S+](C)C1(c2ccccc2)C(=O)c2ccccc2C1=O ; what growth inhibition value has been reported?
2

Suppose we examine the molecule COC1C=COC2(C)Oc3c(C)c(O)c4c(c3C2=O)/C(=N/C2CCC(O)OC2C)C=C(NC(=O)/C(C)=C\C(=O)C2CC2C(O)C(C)C(O)C(C)C(OC(C)=O)C1C)C4=O (stereo unspecified) ; what growth inhibition value has been reported?
-11

Suppose we examine the molecule CC(/C=C/c1ccc(Cl)cc1)=N\NC(=S)NCC(C)C ; what growth inhibition value has been reported?
-8

Suppose we examine the molecule CC1=C(C)Cc2c(O)ccc(O)c2C1 ; what growth inhibition value has been reported?
-8
